# system.name: human ADAMTS-5 (Homo sapiens (Human))
# Sequence (Q9UNA0 262-930): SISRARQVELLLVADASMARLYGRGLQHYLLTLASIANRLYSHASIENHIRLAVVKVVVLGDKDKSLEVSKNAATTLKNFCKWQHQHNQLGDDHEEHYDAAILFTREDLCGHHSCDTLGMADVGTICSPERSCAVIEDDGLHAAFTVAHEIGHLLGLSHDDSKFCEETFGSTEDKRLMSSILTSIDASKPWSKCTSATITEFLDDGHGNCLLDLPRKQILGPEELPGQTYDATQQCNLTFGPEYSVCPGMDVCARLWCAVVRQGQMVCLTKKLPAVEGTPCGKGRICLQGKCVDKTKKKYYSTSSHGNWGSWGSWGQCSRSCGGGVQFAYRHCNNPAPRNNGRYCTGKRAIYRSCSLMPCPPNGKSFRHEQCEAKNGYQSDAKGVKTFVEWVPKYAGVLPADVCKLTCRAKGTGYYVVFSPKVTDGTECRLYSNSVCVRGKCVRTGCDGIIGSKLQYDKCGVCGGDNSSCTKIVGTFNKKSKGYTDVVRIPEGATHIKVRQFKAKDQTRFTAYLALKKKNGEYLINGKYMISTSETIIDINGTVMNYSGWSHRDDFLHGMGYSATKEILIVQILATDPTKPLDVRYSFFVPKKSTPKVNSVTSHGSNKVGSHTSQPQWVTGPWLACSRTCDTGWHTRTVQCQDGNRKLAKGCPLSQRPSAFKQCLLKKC
# study.conditions: read-out: hADAMTS-5 potency IC50
quantity: pIC50
// pIC50 here means minus log10 of the molar concentration (mol/L)

Please review the following examples before continuing.
Query string: Given Cc1ccccc1N1CCN(C(=O)CCC2(c3ccc(CN(C)C)cc3)NC(=O)NC2=O)CC1 (centres unmarked) [compound 82] , state its recorded pIC50.
Result string: 5.76

Query string: Now consider O=C1NC(=O)C(CCC(=O)N2CCN(c3ccc4occc4c3)CC2)(c2ccccc2)N1 (centres unmarked) [compound 25] .
Result string: 6.86

Query string: Now consider COc1ccc(Cl)cc1C1(CCC(=O)N2CCN(c3cc(Cl)ccc3C)CC2)NC(=O)NC1=O (centres unmarked) [compound 133] .
Result string: 6.97

Query string: Now consider O=C1NC(=O)C(CCC(=O)N2CCN(c3ccccc3)CC2)(c2cccnc2)N1 (centres unmarked) [compound 68] .
Result string: 6.77

Query string: Now consider CC1(CCC(=O)N2CCN(c3ccc(Cl)c(Cl)c3)CC2)NC(=O)NC1=O (centres unmarked) [compound 67] .
Result string: 6.82

Consider the additional compound presented here.
Query string: Given N#Cc1ccc(C2(CCC(=O)N3CCN(c4cccc(Cl)c4)CC3)NC(=O)NC2=O)cc1 (centres unmarked) [compound 125] , state its recorded pIC50.
Result string: 7.28

###

# system.name: human MMP13 (Homo sapiens (Human), UniProt P45452)
# study.conditions: read-out: hMMP-13 potency IC50
Reported pIC50 is given for each of the following compounds.
// pIC50 here means minus log10 of the molar concentration (mol/L)

Please review the following examples before continuing.
Query string: Given COc1ccc(C2(CCC(=O)N3CCN(c4cccc(Cl)c4)CC3)NC(=O)NC2=O)cc1 (centres unmarked) , state its recorded pIC50.
Result string: 5.68

Query string: Now consider COc1cccc(C2(CCC(=O)N3CCN(c4cccc(Cl)c4)CC3)NC(=O)NC2=O)c1 (centres unmarked) .
Result string: 6.04

Query string: Now consider COCC1(CC(C)C(=O)N2CCN(c3cccc(F)c3)[C@@H](C)C2)NC(=O)NC1=O (some centres unmarked) .
Result string: 5.41

Consider the additional compound presented here.
Query string: Given CCC(CC1(C)NC(=O)NC1=O)C(=O)N1CCN(c2cc(Cl)cc(Cl)c2)CC1 (centres unmarked) [compound 236] , state its recorded pIC50.
Result string: 5.91

###

Reported IC50 is given for each of the following compounds.
# system.name: human TACE (Homo sapiens (Human), UniProt P78536)
# Sequence (P78536 whole entry, looked up, change not shown): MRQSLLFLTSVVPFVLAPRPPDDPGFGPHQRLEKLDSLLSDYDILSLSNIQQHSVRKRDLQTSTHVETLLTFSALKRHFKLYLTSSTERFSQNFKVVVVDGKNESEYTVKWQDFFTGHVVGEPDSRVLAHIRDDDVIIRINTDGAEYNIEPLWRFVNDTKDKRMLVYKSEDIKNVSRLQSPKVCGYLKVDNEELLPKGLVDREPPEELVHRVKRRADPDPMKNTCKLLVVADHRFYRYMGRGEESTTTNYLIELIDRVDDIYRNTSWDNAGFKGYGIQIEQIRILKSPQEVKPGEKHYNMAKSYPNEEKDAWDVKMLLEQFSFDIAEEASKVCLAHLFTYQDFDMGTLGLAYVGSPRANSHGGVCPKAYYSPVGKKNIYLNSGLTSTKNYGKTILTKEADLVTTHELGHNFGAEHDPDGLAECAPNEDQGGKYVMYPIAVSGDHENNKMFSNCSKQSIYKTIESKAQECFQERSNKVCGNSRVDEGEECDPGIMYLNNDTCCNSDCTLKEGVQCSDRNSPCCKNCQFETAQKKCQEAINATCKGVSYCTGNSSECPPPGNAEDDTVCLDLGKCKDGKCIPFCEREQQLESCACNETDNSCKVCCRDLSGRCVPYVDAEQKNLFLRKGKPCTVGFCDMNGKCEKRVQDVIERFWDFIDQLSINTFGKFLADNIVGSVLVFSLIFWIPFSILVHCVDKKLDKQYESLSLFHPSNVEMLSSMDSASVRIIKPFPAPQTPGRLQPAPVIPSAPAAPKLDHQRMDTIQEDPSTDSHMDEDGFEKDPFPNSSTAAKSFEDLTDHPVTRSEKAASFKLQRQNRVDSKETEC
# study.conditions: read-out: TACE potency IC50

Query string: Given CC(CC1(c2ccccn2)NC(=O)NC1=O)C(=O)N1CCN(c2cc(Cl)cc(Cl)c2)CC1 (stereo not shown) [compound 231] , state its recorded IC50.
Result string: 0.106 µM

Query string: Now consider C[C@H]1CN(C(=O)CCC2(C3CC3)NC(=O)NC2=O)CCN1c1ccc(F)c(F)c1 (stereo partly shown) .
Result string: > 20 µM

Query string: Now consider CC(CC1(C2CC2)NC(=O)NC1=O)C(=O)N1CCN(c2ccc(F)c(F)c2)[C@@H](C)C1 (stereo partly shown) .
Result string: > 20 µM

***
Query string: Given CC(CC1(C2CC2)NC(=O)NC1=O)C(=O)N1CCN(c2ccc(F)c(Cl)c2)[C@@H](C)C1 (stereo partly shown) [compound 192] , state its recorded IC50.
Result string: > 4 µM

###

# system.name: human TACE (Homo sapiens (Human), UniProt P78536)
# study.conditions: read-out: TACE potency IC50
quantity: IC50

Query string: Given Cc1nc(N2CCN(C(=O)CCC3(C4CC4)NC(=O)NC3=O)C[C@@H]2C)no1 (some centres unmarked) , state its recorded IC50.
Result string: > 20 µM

Query string: Now consider O=C1NC(=O)C(CCC(=O)N2CCN(c3ccc(Cl)cc3)CC2)(c2ccccc2)N1 (centres unmarked) .
Result string: > 3.33 µM

Query string: Now consider CC(CC1NC(=O)NC1=O)C(=O)N1CCN(c2ccc(F)c(Cl)c2)[C@@H](C)C1 (some centres unmarked) .
Result string: > 20 µM

Query string: Now consider CC(CC1NC(=O)NC1=O)C(=O)N1CCN(c2ccc(F)c(F)c2)[C@@H](C)C1 (some centres unmarked) .
Result string: > 12 µM

Query string: Now consider Cc1ccc(C)c(N2CCN(C(=O)CCC3(C)NC(=O)NC3=O)CC2)c1 (centres unmarked) .
Result string: 0.588 µM

***
Query string: Given C[C@H]1CN(C(=O)CCC2(C3CC3)NC(=O)NC2=O)CCN1c1cncc(F)c1 (some centres unmarked) , state its recorded IC50.
Result string: > 20 µM

Query string: Now consider COC(=O)CC1(CCC(=O)N2CCN(c3cc(Cl)cc(Cl)c3)CC2)NC(=O)NC1=O (centres unmarked) .
Result string: > 4 µM

Query string: Now consider "C[C@@H](C[C@@]1(C2CC2)NC(=O)NC1=O)C(=O)N1CCN(c2cc(F)cc(-c3cn[nH]c3)c2)[C@@H](C)C1" .
Result string: 1.49 µM

###

Reported pIC50 is given for each of the following molecules.
# system.name: rnADAMTS-5 (1-564-6H) (Rattus norvegicus, UniProt Q6TY19)
// pIC50 here means minus log10 of the molar concentration (mol/L)

Please review the following examples before continuing.
Query string: Missing value: pIC50, rnADAMTS-5 (1-564-6H) (Rattus norvegicus, UniProt Q6TY19), entry C[C@H]1CN(C(=O)CCC2(C3CC3)NC(=O)NC2=O)CCN1c1ccccc1 (some centres unmarked) . Fill in?
Result string: 6.90

Query string: Now consider CC(CC1(CC2CCN(C(=O)OC(C)(C)C)CC2)NC(=O)NC1=O)C(=O)N1CCN(c2cc(Cl)cc(Cl)c2)CC1 (centres unmarked) .
Result string: 7.42

Query string: Now consider O=C1NC(=O)C(CCC(=O)N2CCN(c3cc(Cl)cc(Cl)c3)CC2)(c2cccnc2)N1 (centres unmarked) .
Result string: 7.34

Query string: Now consider Cc1ccc(C)c(N2CCN(C(=O)CCC3(c4cccnc4)NC(=O)NC3=O)CC2)c1 (centres unmarked) .
Result string: 6.92

Query string: Now consider COc1ccc(C2(CCC(=O)N3CCN(c4cc(Cl)ccc4C)CC3)NC(=O)NC2=O)cc1 (centres unmarked) .
Result string: 7.28

***
Query string: Missing value: pIC50, rnADAMTS-5 (1-564-6H) (Rattus norvegicus, UniProt Q6TY19), entry CC(CC1NC(=O)NC1=O)C(=O)N1CCN(c2cc(Cl)cc(Cl)c2)CC1 (centres unmarked) [compound 219] . Fill in?
Result string: 7.54

Query string: Now consider C[C@H]1CN(C(=O)CCC2(C)NC(=O)NC2=O)CCN1c1ccc(Cl)c(Cl)c1 (some centres unmarked) .
Result string: 6.89

Query string: Now consider "C[C@H]1CN(C(=O)CC[C@@]2(C3CC3)NC(=O)NC2=O)CCN1c1cc(Cl)cc(Cl)c1" .
Result string: 7.96

###

Reported pIC50 is given for each of the following compounds.
# system.name: human TACE (Homo sapiens (Human))
# procedure.details: biochemical
pIC50: −log10 of the molar value.

Please review the following examples before continuing.
Query string: Given C[C@H]1CN(C(=O)CCC2(c3ccc(C(F)(F)F)nc3)NC(=O)NC2=O)CCN1c1cc(F)cc(F)c1 (stereo partly shown) [compound 335] , state its recorded pIC50.
Result string: < 5.40

Query string: Now consider C[C@H]1CN(C(=O)CCC2(C3CC3)NC(=O)NC2=O)CCN1c1cccc2c1cnn2C (stereo partly shown) [compound 333] .
Result string: < 4.70

Query string: Now consider C[C@H]1CN(C(=O)CCC2(C)NC(=O)NC2=O)CCN1c1ccc(Cl)c(F)c1 (stereo partly shown) [compound 164] .
Result string: < 4.70

***
Query string: Given COCC1(CC(C)C(=O)N2CCN(c3cncc(F)c3)[C@@H](C)C2)NC(=O)NC1=O (stereo partly shown) [compound 364] , state its recorded pIC50.
Result string: < 4.70

###

Reported pIC50 is given for each of the following compounds.
# system.name: human TACE (Homo sapiens (Human), UniProt P78536)
# study.conditions: read-out: TACE potency IC50
pIC50: −log10 of the molar value.

Please review the following examples before continuing.
Query string: Given C[C@H]1CN(C(=O)CCC2(C3CC3)NC(=O)NC2=O)CCN1c1cc(F)cc(Cl)c1 (stereo partly shown) [compound 169] , state its recorded pIC50.
Result string: < 4.70

Query string: Now consider C[C@H]1CN(C(=O)CC[C@@]2(C3CC3)NC(=O)NC2=O)CCN1c1cccc(F)c1 [compound 203] .
Result string: < 4.70

Query string: Now consider Cc1ccc(Cl)cc1N1CCN(C(=O)CCC2(C(C)C)NC(=O)NC2=O)CC1 (stereo not shown) [compound 33] .
Result string: 6.37

Consider the additional compound presented here.
Query string: Given CC(CC1(C2CN(C(=O)OC(C)(C)C)C2)NC(=O)NC1=O)C(=O)N1CCN(c2ccc(F)c(F)c2)CC1 (stereo not shown) [compound 234] , state its recorded pIC50.
Result string: < 5.40

The measured values listed here are drawn from patent US9926281B2.
